meta.source: patent US8435978B2

SYSTEM_TESTED: B1R receptor of the rat (Rattus norvegicus, UniProt P97583)
Construct: host or cells: CHO K1 cells (Chinese hamster ovary), stably transfected
Sequence (P97583 whole entry): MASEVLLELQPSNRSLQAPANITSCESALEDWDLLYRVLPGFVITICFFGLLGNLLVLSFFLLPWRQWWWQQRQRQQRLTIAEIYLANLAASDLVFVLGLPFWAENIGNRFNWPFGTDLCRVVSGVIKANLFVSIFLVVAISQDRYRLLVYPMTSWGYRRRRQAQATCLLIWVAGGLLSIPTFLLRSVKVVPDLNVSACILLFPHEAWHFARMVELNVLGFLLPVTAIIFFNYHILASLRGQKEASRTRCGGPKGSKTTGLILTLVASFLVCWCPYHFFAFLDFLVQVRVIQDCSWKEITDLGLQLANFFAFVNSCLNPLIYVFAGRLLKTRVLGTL
ASSAY_PROCEDURE: Functional study on the bradykinin receptor 1 (B1R), FLIPR Ca2+ assay, rB1R cells
Type: cell-based
RECORDED_CONDITIONS: CHO-K1, test substance 10 μM, agonist Des-Arg9-bradykinin 100 nM, % inhibition compared with the maximum achievable inhibition, read-out: B1R Antagonism, rat [10 μM] % Inhibition
Exercise: state measured inhibition at 10 µM for each of the molecules provided.
Give bare numbers, in %.

Use these answered entries as a reference point.
MOLECULE: O=C(COCC1CCCCN1S(=O)(=O)c1c(Cl)cccc1Cl)N1CCN(c2ccccc2F)CC1 (stereo not shown) [Example 442]
inhibition at 10 µM (%): 98.6

MOLECULE: COc1cc(C)c(S(=O)(=O)N2CCCCC2COCC(=O)NCc2ccccc2Oc2cnccn2)c(C)c1 (stereo not shown) [Example 205]
inhibition at 10 µM (%): 99.7

MOLECULE: COc1cccc(N2CCN(C(=O)COCC3CCCCN3S(=O)(=O)c3c(C)cc(C)cc3C)CC2)c1 (stereo not shown) [Example 77]
inhibition at 10 µM (%): 105

Switching to the query record.
Query block: Given the entry COc1cc(C)c(S(=O)(=O)N2CCCCC2COCC(=O)NC(C)Cn2cccn2)c(C)c1 (stereo not shown) [Example 426] , what inhibition at 10 µM was observed with B1R receptor of the rat (Rattus norvegicus, UniProt P97583)?
Result block: 94.4
